Organism: Rattus norvegicus
test-name: Inhibition of VGLUT in rat brain assessed as [3H]-L-Glu uptake into synaptic vesicles at 250 uM relative to control
Type: tissue-based
Use 30% as the dividing line for inhibition, with the line itself on the rule met side and lower values as rule not met.

1. CC(=O)O[C@H]1CC[C@@]2(C)C(=CC[C@H]3[C@@H]4CC[C@H](C(C)=O)[C@@]4(C)CC[C@@H]32)C1 | rule met

Query: Dear colleague, could you confirm whether `O=C(O)c1cc(C(=O)O)c2c(ccc3cc4ccccc4cc32)n1` has inhibition at or above 30%?
Reply: rule not met

Query: Dear colleague, could you confirm whether `CC(=O)[C@H]1CC[C@H]2[C@@H]3CC[C@@H]4C[C@@H](OS(=O)(=O)O)CC[C@]4(C)[C@H]3CC[C@]12C` has inhibition at or above 30%?
Reply: rule not met

Query: Dear colleague, could you confirm whether `C[C@]12CC[C@@H]3c4ccc(OC(=O)CCC(=O)O)cc4CC[C@H]3[C@@H]1CCC2=O` has inhibition at or above 30%?
Reply: rule met

Query: Dear colleague, could you confirm whether `CC(=O)[C@H]1CC[C@H]2[C@@H]3CC=C4C[C@@H](O)CC[C@]4(C)[C@H]3CC[C@]12C` has inhibition at or above 30%?
Reply: rule met

Query: Dear colleague, could you confirm whether CC(=O)C1CCC2C3CC=C4CC(OS(=O)(=O)O)CCC4(C)C3CCC12C (stereo not drawn) has inhibition at or above 30%?
Reply: rule met

Query: Dear colleague, could you confirm whether `C[C@]12CC[C@@H]3c4ccc(O)cc4CC[C@H]3[C@@H]1CCC2=O` has inhibition at or above 30%?
Reply: rule met

Query: Dear colleague, could you confirm whether `O=C(O)c1cc(C(=O)O)c2ccc3cc4ccccc4cc3c2n1` has inhibition at or above 30%?
Reply: rule not met
